Give maximum noncytotoxic concentration for every item shown.
# System: 3T3-L1 cells
# experiment notes: Cell viability / cytotoxicity, CCK-8 assay
# Format: cell-based
# measurement conditions: CCK-8, 48 h
Only the number, expressed in µM, is required.

-- ask Returns the measured maximum noncytotoxic concentration for the input molecule. Input: COc1ccc(C[C@@H]2c3cc(Oc4cc(C[C@H]5c6cc(OC)c(OC)cc6CCN5C)ccc4O)c(OC)cc3CCN2C)cc1 [Compound 8, 1′-epi-neferine]
-- reply 5

-- ask Next up: COc1ccc(C[C@@H]2c3cc(Oc4cc(C[C@@H]5c6cc(OC)c(OC)cc6CCN5C)ccc4O)c(OC)cc3CCN2C)cc1
-- reply 10

-- ask Here is the next molecule: C=C(c1ccc(O)c(Oc2cc3c(cc2OC)CCN(C)[C@@H]3Cc2ccc(OC)cc2)c1)[C@H]1c2cc(O)c(OC)cc2CCN1C
-- reply 5

-- ask C=C(c1ccc(O)c(Oc2cc3c(cc2OC)CCN(C)[C@@H]3Cc2ccc(OC)cc2)c1)[C@@H]1c2cc(O)c(OC)cc2CCN1C ?
-- reply 10

-- ask Then this molecule: C=C(c1ccc(O)c(Oc2cc3c(cc2OC)CCN(C)[C@@H]3Cc2ccc(OC)cc2)c1)[C@@H]1c2cc(OC)c(OC)cc2CCN1C
-- reply 15

-- ask // next record C=C(c1ccc(O)c(Oc2cc3c(cc2OC)CCN(C)[C@@H]3Cc2ccc(OC)cc2)c1)[C@H]1c2cc(OC)c(OC)cc2CCN1C
-- reply 5
